B1: PTPRD (parent)
chain: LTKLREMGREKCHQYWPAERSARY

# Variants of: B1
# run.description: protein stability index of a GFP-peptide fusion (GPS, HEK-293T) (PSI 1-6); higher = more stable;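 further: lentivirally expressed fusions sorted by FACS into six bins by GFP to DsRed ratio, PSI derived from sequencing read proportions per bin multiplied by bin number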
# condition.info: c terminus: a fixed tail appended
quantity.name: protein stability index

variant.key: Y15H
quantity.name: protein stability index
value.observed: 3.41

variant.key: K11N
quantity.name: protein stability index
value.observed: 2.74

variant.key: R9C
quantity.name: protein stability index
value.observed: 2.15

variant.key: H13K
quantity.name: protein stability index
value.observed: 2.53

variant.key: H13G
quantity.name: protein stability index
value.observed: 2.66

variant.key: Y15D
quantity.name: protein stability index
value.observed: 3.31

variant.key: E6A
quantity.name: protein stability index
value.observed: 2.41

variant.key: G8K
quantity.name: protein stability index
value.observed: 2.04

variant.key: E19W
quantity.name: protein stability index
value.observed: 2.15

variant.key: R20L
quantity.name: protein stability index
value.observed: 2.34

variant.key: R20D
quantity.name: protein stability index
value.observed: 2.92

variant.key: C12H
quantity.name: protein stability index
value.observed: 2.83

variant.key: Y24F
quantity.name: protein stability index
value.observed: 2.21

variant.key: T2K
quantity.name: protein stability index
value.observed: 2.92

variant.key: W16V
quantity.name: protein stability index
value.observed: 2.76

variant.key: R5A
quantity.name: protein stability index
value.observed: 2.53

variant.key: P17Q
quantity.name: protein stability index
value.observed: 2.16

variant.key: Q14Y
quantity.name: protein stability index
value.observed: 1.85

variant.key: E19T
quantity.name: protein stability index
value.observed: 2.21

variant.key: R20F
quantity.name: protein stability index
value.observed: 1.93

variant.key: K3H
quantity.name: protein stability index
value.observed: 2.41

variant.key: W16M
quantity.name: protein stability index
value.observed: 2.85

variant.key: Y15K
quantity.name: protein stability index
value.observed: 3.1

variant.key: E19L
quantity.name: protein stability index
value.observed: 1.7

variant.key: S21P
quantity.name: protein stability index
value.observed: 2.24

variant.key: E19R
quantity.name: protein stability index
value.observed: 2.56

variant.key: E19I
quantity.name: protein stability index
value.observed: 1.91

variant.key: Q14C
quantity.name: protein stability index
value.observed: 1.82

variant.key: L1D
quantity.name: protein stability index
value.observed: 3.59

variant.key: T2P
quantity.name: protein stability index
value.observed: 2.53

variant.key: E10H
quantity.name: protein stability index
value.observed: 2.05

variant.key: E10A
quantity.name: protein stability index
value.observed: 2.08

variant.key: P17H
quantity.name: protein stability index
value.observed: 1.75

variant.key: K11Q
quantity.name: protein stability index
value.observed: 2.44

variant.key: M7V
quantity.name: protein stability index
value.observed: 2.56

variant.key: T2E
quantity.name: protein stability index
value.observed: 3.03

variant.key: A22I
quantity.name: protein stability index
value.observed: 2.08

variant.key: S21W
quantity.name: protein stability index
value.observed: 1.94

variant.key: A18R
quantity.name: protein stability index
value.observed: 2.13

variant.key: Y24I
quantity.name: protein stability index
value.observed: 2.29

variant.key: E10F
quantity.name: protein stability index
value.observed: 2.13

variant.key: G8N
quantity.name: protein stability index
value.observed: 2.29

variant.key: R23P
quantity.name: protein stability index
value.observed: 3.02

variant.key: H13S
quantity.name: protein stability index
value.observed: 2.28

variant.key: S21I
quantity.name: protein stability index
value.observed: 2.99

variant.key: E10D
quantity.name: protein stability index
value.observed: 2.3
